src = PubChem BioAssay

- ASSAY_TARGET: Epidermal growth factor receptor (Homo sapiens)
- PROTOCOL_DETAILS: compounds binding epidermal growth factor receptor – biochemical, small-molecule microarray, 635 nm fluorescence, primary screen (AID 1104);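 note: score merges 667 nm emission intensity with spot signal to noise over triplicate slides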
- CONDITIONS_USED: EGFR binding, higher = more signal
RECORDED_METRIC: composite z-score
Give bare numbers.

MOLECULE	composite z-score
CCN(CC)c1ccc(N2CC=CC34O[C@@H]5C=CCCOC(=O)C5[C@H]3C(=O)N(C(C)CO)[C@@H]4C2=O)cc1 (stereo not given in full)	-0.79
C=C(COC)C(=O)CC[C@@H](OC(=O)c1ccccc1-c1ccccc1C(=O)O)c1ccc(OCCO)cc1	-0.487
COCCCNC(=O)[C@@]1(Sc2ccc(C)cc2)CC(=O)N(Cc2ccccc2C(F)(F)F)[C@@H]1c1ccc(CO)cc1I	-1.44

Hello, I would appreciate it if you could give composite z-score for each entry below.
1. C=CCC(OC(C)=O)[C@@H]1[C@@H](N(Cc2cc3ccccc3o2)C(=O)c2cccc3ccccc23)c2cc(OCCCO)ccc2N1C(=O)c1ccc2ccccc2n1 (stereo not given in full)
2. CC1CC/C=C\[C@H]2OC34C=CCN(CCN5CCOCC5)C(=O)[C@H]3N(CCCO)C(=O)[C@@H]4C2C(=O)O1 (stereo not given in full)

[0.3, -0.555]
